Attribution: patent US5811533

# Experimental system: VEGF165 (recombinant human vascular endothelial growth factor, 165 aa form) (Homo sapiens, UniProt P15692-4 P15692-4:27-191)
# Sequence (P15692 other isoform, or with tags, fused parts or gaps): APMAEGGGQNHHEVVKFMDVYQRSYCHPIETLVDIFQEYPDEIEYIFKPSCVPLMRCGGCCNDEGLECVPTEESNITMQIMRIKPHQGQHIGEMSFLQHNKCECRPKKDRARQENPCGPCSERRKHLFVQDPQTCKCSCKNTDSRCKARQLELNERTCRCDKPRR
# Assay info: filter
# Condition details: tags: gift from N. Ferrara, Genentech; chain copies: 2 (dimer, stated)
Overview of reported Kd across a group of binders:
Readout name: Kd (nM)

ssDNA 1 (ssDNA) DNA: ATCCGCCTGATTAGCGATACTTCTGCGAGAGACCTACTGGAACGTTTTGTGATATTCACAACTTGAGCAAAATCACCTGCAGGGG : 12
AGGGCCACGTCTATTTAGACTAGAGTGCAGTGGTTC (ssDNA) [56t] : 0.2
AACACTTCCCCACTGGATAGAGGCCTTTCGCAGAGCCGGTGCTTA (ssDNA) [66t] : 0.35
CCCGTCTTCCAGACAAGAGTGCAGGG (ssDNA) [33t] : 0.7
ssDNA b79 (ssDNA) DNA: CTACCTACGATCTGACTAGCGAGGCATTAGGTCCGAATGGTAGTAATGCTGTCGTGCCTTGCTTAGCTTACTCTCATGTAGTTCCT : 2
ssDNA b66 (ssDNA) DNA: CTACCTACGATCTGACTAGCAACACTTCCCCACTGGATAGAGGCCTTTCGCAGAGCCGGTGCTTAGCTTACTCTCATGTAGTTCCT : 1.3
ssDNA b85 (ssDNA) DNA: CTACCTACGATCTGACTAGCGAGGAGGTGCGTTGTCCGAAGGGGTCGTTAGTCACCTCGTGCTTAGCTTACTCTCATGTAGTTCCT : 0.15
